System: Rhizoctonia solani
Method notes: Antimicrobial activity against Rhizoctonia solani assessed as colony diameter at 0.1 ug/plug after 3 days ( Rvb = 2.95 +/- 0.11 cm)
Type: functional
Below, each entry is listed with its recorded Activity.

Molecule: C/C=C/C=C/CC1=C(CC(C)O)C(=O)OC1 (centres undefined) [HARZIANOLIDE]
Activity: 2.83 cm
--
Molecule: C/C=C/CC(C)C(=O)c1c(O)c(OC)c(OC)[nH]c1=O (centres undefined)
Activity: 2.53 cm
--
Molecule: C/C=C/C=C/CC1=C(CC(C)=O)C(=O)OC1 [T39BUTENOLIDE]
Activity: 2.5 cm
--
Molecule: C/C=C/C=C/C1=CC2=CC(=O)[C@](C)(OC(=O)[C@H](C)O)C(=O)C2=CO1
Activity: 2.83 cm
